Read-out record for Escherichia coli ATCC 25922: MIC
Quantity Kind: MIC (µM)

Compound: CC(C)C[C@H](NC(=O)[C@H](CCCCN)NC(=O)[C@H](CCCN=C(N)N)NC(=O)[C@H](Cc1ccccc1)NC(=O)[C@H](Cc1ccccc1)NC(=O)[C@H](CCCCN)NC(=O)[C@H](CCCCN)NC(=O)[C@H](Cc1ccccc1)NC(=O)[C@H](CCCN=C(N)N)NC(=O)[C@H](CCCCN)NC(=O)[C@@H](NC(=O)[C@H](CC(C)C)NC(=O)[C@@H](N)CCCCN)C(C)C)C(=O)N[C@@H](CCCCN)C(=O)N[C@@H](CCCCN)C(=O)N[C@@H](CO)C(N)=O [KLVKRFKKFFRKLKKS]
Quantity Kind: MIC
Qualifier Sign: =
Observed Value: 30.7
--
Compound: CC[C@H](C)[C@H](N)C(=O)N[C@@H](CCCN=C(N)N)C(=O)N1CCC[C@H]1C(=O)N[C@H](C(=O)N[C@@H](CCCN=C(N)N)C(=O)N1CCC[C@H]1C(=O)O)[C@@H](C)CC [IRPIRP]
Quantity Kind: MIC
Qualifier Sign: >
Observed Value: 128
--
Compound: CC(C)[C@H](NC(=O)[C@H](Cc1c[nH]c2ccccc12)NC(=O)[C@H](CCCCN)NC(=O)[C@H](CCCCN)NC(=O)[C@@H](NC(=O)[C@H](Cc1c[nH]c2ccccc12)NC(=O)[C@H](CCCCN)NC(=O)[C@H](CCCCN)NC(=O)[C@@H](NC(=O)[C@H](Cc1c[nH]c2ccccc12)NC(=O)[C@@H](N)CCCCN)C(C)C)C(C)C)C(=O)N[C@@H](CCCCN)C(N)=O [KWVKKWVKKWVK]
Quantity Kind: MIC
Qualifier Sign: =
Observed Value: 1

* * *

Recorded MIC for the following compounds
- Test system: Candida albicans ATCC 90028

Compound: NCCCC[C@H](NC(=O)[C@H](Cc1c[nH]c2ccccc12)NC(=O)[C@H](CCCCN)NC(=O)[C@H](Cc1c[nH]c2ccccc12)NC(=O)[C@@H](N)CCCCN)C(=O)N[C@@H](Cc1c[nH]c2ccccc12)C(=O)O [KWKWKW]
MIC: ≥ 100 µM

Compound: CC[C@H](C)[C@H](NC(=O)[C@@H]1CCCN1C(=O)[C@H](CC(C)C)NC(=O)[C@@H](N)Cc1ccccc1)C(=O)N[C@H](C(=O)N[C@H](C(=O)N[C@@H](CC(N)=O)C(=O)N[C@@H](CC(C)C)C(=O)N[C@@H](CC(C)C)C(=O)N[C@@H](CO)C(=O)NCC(=O)N[C@@H](CC(C)C)C(=O)N[C@@H](CC(C)C)C(=O)O)[C@@H](C)O)C(C)C [FLPIVTNLLSGLL]
MIC: ≥ 116 µM

Compound: CC[C@H](C)[C@H](NC(=O)CN)C(=O)N[C@@H](Cc1ccccc1)C(=O)N[C@@H](CO)C(=O)N[C@H](C(=O)N[C@H](C(=O)N[C@@H](Cc1ccccc1)C(=O)N[C@@H](CCCCN)C(=O)N[C@@H](C)C(=O)NCC(=O)N[C@@H](CCCCN)C(=O)NCC(=O)N[C@H](C(=O)N[C@H](C(=O)N[C@H]1CSSC[C@@H](C(=O)O)NC(=O)[C@H](CC(C)C)NC(=O)CNC(=O)[C@H]([C@@H](C)O)NC(=O)[C@H](CC(C)C)NC(=O)CNC1=O)C(C)C)[C@@H](C)CC)C(C)C)[C@@H](C)O [GIFSTVFKAGKGIVCGLTGLC]
MIC: ≥ 50 µM

Compound: CC(C)C[C@H](NC(=O)[C@H](C)NC(=O)CNC(=O)[C@@H](NC(=O)[C@@H](NC(=O)[C@H](CCCCN)NC(=O)[C@H](CCCCN)NC(=O)[C@@H](NC(=O)[C@H](CC(C)C)NC(=O)[C@H](CCCCN)NC(=O)[C@H](CC(C)C)NC(=O)[C@H](CC(C)C)NC(=O)[C@@H](N)CCCCN)C(C)C)C(C)C)C(C)C)C(=O)NCC(N)=O [KLLKLVKKVVGALG]
MIC: 22 µM

Compound: CC(C)C[C@H](NC(=O)[C@H](CCCCN)NC(=O)[C@H](CC(C)C)NC(=O)[C@H](CC(C)C)NC(=O)[C@H](CC(C)C)NC(=O)[C@H](CCCCN)NC(=O)[C@H](CC(C)C)NC(=O)[C@@H](N)CCCCN)C(=O)N[C@@H](CCCCN)C(N)=O [KLKLLLKLK]
MIC: ≥ 100 µM

Compound: CC[C@H](C)[C@H](NC(=O)[C@H](CCCN=C(N)N)NC(=O)[C@H](CCC(N)=O)NC(=O)[C@H](C)NC(=O)[C@H](C)NC(=O)[C@H](CCCN=C(N)N)NC(=O)[C@@H](N)CCCCN)C(=O)N[C@@H](CCCCN)C(=O)N[C@@H](C)C(=O)N[C@@H](Cc1ccccc1)C(=O)N[C@@H](CC(C)C)C(=O)N[C@@H](CCCN=C(N)N)C(=O)O [KRAAQRIKAFLR]
MIC: ≥ 40 µM

Each recorded value in this set is attributed to DBAASP.
